Would you mind telling me the reported AC50 of each entry?
SUBJECT OF TEST: Glucocorticoid receptor (Homo sapiens)
Sequence (P04150 whole entry): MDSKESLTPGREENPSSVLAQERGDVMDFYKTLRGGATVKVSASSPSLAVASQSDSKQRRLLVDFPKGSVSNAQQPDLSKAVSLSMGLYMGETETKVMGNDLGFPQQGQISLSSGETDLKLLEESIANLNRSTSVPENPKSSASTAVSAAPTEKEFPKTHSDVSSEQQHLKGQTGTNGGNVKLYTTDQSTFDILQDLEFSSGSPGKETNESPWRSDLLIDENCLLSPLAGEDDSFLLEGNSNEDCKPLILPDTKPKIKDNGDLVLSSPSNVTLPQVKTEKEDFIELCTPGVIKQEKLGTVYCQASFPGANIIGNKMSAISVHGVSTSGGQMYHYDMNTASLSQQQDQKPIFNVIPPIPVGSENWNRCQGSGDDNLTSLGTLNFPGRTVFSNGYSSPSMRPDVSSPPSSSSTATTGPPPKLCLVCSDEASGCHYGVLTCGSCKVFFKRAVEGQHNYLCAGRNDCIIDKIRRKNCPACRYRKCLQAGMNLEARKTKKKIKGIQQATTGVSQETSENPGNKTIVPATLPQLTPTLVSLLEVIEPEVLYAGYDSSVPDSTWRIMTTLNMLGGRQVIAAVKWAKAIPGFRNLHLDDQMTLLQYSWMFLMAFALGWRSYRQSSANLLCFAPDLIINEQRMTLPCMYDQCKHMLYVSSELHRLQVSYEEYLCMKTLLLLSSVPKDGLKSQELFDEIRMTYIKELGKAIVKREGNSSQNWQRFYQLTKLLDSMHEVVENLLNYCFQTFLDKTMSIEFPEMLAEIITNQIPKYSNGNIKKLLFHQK

Here is how some molecules turned out for AC50.
OC[C@H]1O[C@@H](Oc2cc(O)cc(/C=C/c3ccc(O)cc3)c2)[C@H](O)[C@@H](O)[C@@H]1O [PICEID]	> 30 µM
CN(C)CCCN1c2ccccc2CCc2ccccc21 [IMIPRAMINE]	> 30 µM
O=C(/C=C/c1cccc(S(=O)(=O)Nc2ccccc2)c1)NO [BELINOSTAT]	> 30 µM
CC(=O)[C@H]1CC[C@H]2[C@@H]3C[C@H](C)C4=CC(=O)CC[C@]4(C)[C@H]3[C@@H](O)C[C@]12C [MEDRYSONE]	0.005 µM

IN: For Glucocorticoid receptor (Homo sapiens), provide AC50 of CCc1nc(N)nc(N)c1-c1ccc(Cl)cc1 [PYRIMETHAMINE] please.
OUT: > 10 µM
